Hello, the source for this data is PubChem BioAssay AID1159580, in case you need it.

Kindly supply the reported normalized growth values for the records listed here.
# assay_method_text: chemical genetic growth profiling, strain panel (AID 1159580);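 note: tested at 20 µM; growth read once vehicle control cultures reached saturation at 30 °C; 1 = growth at the plate median or of vehicle wells; lower values mean less growth of the strain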
# condition_parameters: S. cerevisiae deletion strains, growth OD, locus YOR083W, strain WHI5 (second series), active compounds read low
The campaign covered roughly 5,500 compounds. About 2,000 (36%) were called active. Inconclusive results (about 18%) are left out. The list shows a part of the results.

Solved cases (6 shown):
>>> obs_value("C[C@@H]1O[C@@H](O[C@H]2C[C@@H](O)[C@]3(CO)[C@@H]4C(CC[C@]3(O)C2)[C@@]2(O)CC[C@H](C3COC(=O)C3)[C@@]2(C)C[C@H]4O)[C@H](O)[C@H](O)[C@H]1O (stereo partly specified)")
"1.05 (inactive)"
>>> obs_value("C[C@]12CCC(=O)C=C1CC[C@@H]1[C@@H]2C(=O)C[C@@]2(C)[C@H]1CC[C@]2(O)C(=O)CO")
"0.94 (inactive)"
>>> obs_value("O=C(O)C1CCCN(CCC=C(c2ccccc2)c2ccccc2)C1 (stereo unspecified)")
"1.04 (inactive)"
>>> obs_value("N=C(N)c1ccc(OCCCCCOc2ccc(C(=N)N)cc2)cc1 (tested in a mixture with another compound)")
"0.944 (inactive)"
>>> obs_value("CC1=C[C@@H]2c3cccc4[nH]cc(c34)C[C@H]2N(C)C1")
"1 (inactive)"
>>> obs_value("C[C@@H]1O[C@H](C[N+](C)(C)C)C[C@H]1O")
"1.01 (inactive)"

// for each compound below, give its normalized growth
1. CC1=NS(=O)(=O)c2cc(Cl)ccc2N1
2. CCNC(=O)C1OC(n2cnc3c(NCc4ccccc4)ncnc32)C(O)C1O (stereo unspecified)
3. CC1C(=O)N(C)C(=O)c2nc[nH]c21 (stereo unspecified)

Key:
1.02 (inactive)
0.956 (inactive)
1.02 (inactive)

// for each compound below, give its normalized growth
1. N[C@H](C(=O)O)[C@H]1C[C@@H]1C(=O)O
2. O=C(O)CCCCCC[C@H]1C(=O)NC(=O)N1CC[C@@H](O)C1CCCCC1
3. CCCOc1ccccc1-c1nc2n[nH]nc2c(=O)[nH]1
4. CC(=O)OCC(=O)[C@@]1(O)CC[C@H]2[C@@H]3CCC4=CC(=O)CC[C@]4(C)[C@H]3C(=O)C[C@@]21C
5. Cn1cnc2c(NCc3ccccc3)nc(NCCO)nc21
6. COc1ccc2c(c1)c(CC(=O)N1CCOCC1)c(C)n2C(=O)c1ccc(Cl)cc1
7. O=C(Nc1cc(C(=O)Nc2ccc(S(=O)(=O)O)cc2S(=O)(=O)O)cc(C(=O)Nc2ccc(S(=O)(=O)O)cc2S(=O)(=O)O)c1)Nc1cc(C(=O)Nc2ccc(S(=O)(=O)O)cc2S(=O)(=O)O)cc(C(=O)Nc2ccc(S(=O)(=O)O)cc2S(=O)(=O)O)c1

Key:
1: 1.03 (inactive); 2: 0.985 (inactive); 3: 1.02 (inactive); 4: 0.976 (inactive); 5: 0.988 (inactive); 6: 0.999 (inactive); 7: 0.993 (inactive)

// for each compound below, give its normalized growth
1. COc1cccc(OC)c1OCCNCC1COc2ccccc2O1 (stereo unspecified)
2. CCN1CCC[C@H]1CNC(=O)c1cc(S(N)(=O)=O)ccc1OC

Key:
["1.02 (inactive)", "1.01 (inactive)"]

// for each compound below, give its normalized growth
1. CCN(CC)c1ncnc2c1ncn2[C@@H]1O[C@H](COP(=O)(O)OP(=O)(O)C(Br)(Br)P(=O)(O)O)[C@@H](O)[C@H]1O
2. N=C(N)c1ccc(N)cc1
3. COc1ccc2c(c1)c(CC(=O)O)c(C)n2C(=O)c1ccccc1

Key:
1. 0.979 (inactive)
2. 0.981 (inactive)
3. 1.03 (inactive)
